Test: Probe fluorescence ratio response to arachidonic acid relative to ADIFAB2
Assay type: binding
Settings: arachidonic acid; response relative to ADIFAB2
Please use TRUE whenever DR/DR AA is not below 0.5, and FALSE whenever it is.

Molecule	Group
34Q, 72A (protein, listed as Rattus norvegicus, PEPTIDE (1)...(131) wild-type rat intestinal fatty acid binding protein) AFDGTWKVDRNENYEKFMEKMGINVVKRKLGAHQNLKLTITQEGNKFTVKESSNFRNIDVVFELGVDFAYSAADGTELTGTWTMEGNKLVGKFKRVDNGKELIAVREISGNELIQTYTYEGVEAKRIFKKE	TRUE
74F, 72A (protein, listed as Rattus norvegicus, PEPTIDE (1)...(131) wild-type rat intestinal fatty acid binding protein) AFDGTWKVDRNENYEKFMEKMGINVVKRKLGAHDNLKLTITQEGNKFTVKESSNFRNIDVVFELGVDFAYSAAFGTELTGTWTMEGNKLVGKFKRVDNGKELIAVREISGNELIQTYTYEGVEAKRIFKKE	FALSE
38A2, 72A (protein, listed as Rattus norvegicus, PEPTIDE (1)...(131) wild-type rat intestinal fatty acid binding protein) AFDGTWKVDRNENYEKFMEKMGINVVKRKLGAHDNLKATITQEGNKFTVKESSNFRNIDVVFELGVDFAYSAADGTELTGTWTMEGNKLVGKFKRVDNGKELIAVREISGNELIQTYTYEGVEAKRIFKKE	TRUE
31W2, 72A (protein, listed as Rattus norvegicus, PEPTIDE (1)...(131) wild-type rat intestinal fatty acid binding protein) AFDGTWKVDRNENYEKFMEKMGINVVKRKLWAHDNLKLTITQEGNKFTVKESSNFRNIDVVFELGVDFAYSAADGTELTGTWTMEGNKLVGKFKRVDNGKELIAVREISGNELIQTYTYEGVEAKRIFKKE	TRUE
74Q 72A 73F (protein, listed as Rattus norvegicus, PEPTIDE (1)...(131) wild-type rat intestinal fatty acid binding protein) AFDGTWKVDRNENYEKFMEKMGINVVKRKLGAHDNLKLTITQEGNKFTVKESSNFRNIDVVFELGVDFAYSAFQGTELTGTWTMEGNKLVGKFKRVDNGKELIAVREISGNELIQTYTYEGVEAKRIFKKE	FALSE
31P1, 72A (protein, listed as Rattus norvegicus, PEPTIDE (1)...(131) wild-type rat intestinal fatty acid binding protein) AFDGTWKVDRNENYEKFMEKMGINVVKRKLPAHDNLKLTITQEGNKFTVKESSNFRNIDVVFELGVDFAYSAADGTELTGTWTMEGNKLVGKFKRVDNGKELIAVREISGNELIQTYTYEGVEAKRIFKKE	FALSE
38Y 62W 117A 72A (protein, listed as Rattus norvegicus, PEPTIDE (1)...(131) wild-type rat intestinal fatty acid binding protein) AFDGTWKVDRNENYEKFMEKMGINVVKRKLGAHDNLKYTITQEGNKFTVKESSNFRNIDVVWELGVDFAYSAADGTELTGTWTMEGNKLVGKFKRVDNGKELIAVREISGNELIQTATYEGVEAKRIFKKE	TRUE
106C2, 72A (protein, listed as Rattus norvegicus, PEPTIDE (1)...(131) wild-type rat intestinal fatty acid binding protein) AFDGTWKVDRNENYEKFMEKMGINVVKRKLGAHDNLKLTITQEGNKFTVKESSNFRNIDVVFELGVDFAYSAADGTELTGTWTMEGNKLVGKFKRVDNGKELIAVCEISGNELIQTYTYEGVEAKRIFKKE	FALSE
18L 73F 117G 72A (protein, listed as Rattus norvegicus, PEPTIDE (1)...(131) wild-type rat intestinal fatty acid binding protein) AFDGTWKVDRNENYEKFLEKMGINVVKRKLGAHDNLKLTITQEGNKFTVKESSNFRNIDVVFELGVDFAYSAFDGTELTGTWTMEGNKLVGKFKRVDNGKELIAVREISGNELIQTGTYEGVEAKRIFKKE	TRUE
104S, 72A (protein, listed as Rattus norvegicus, PEPTIDE (1)...(131) wild-type rat intestinal fatty acid binding protein) AFDGTWKVDRNENYEKFMEKMGINVVKRKLGAHDNLKLTITQEGNKFTVKESSNFRNIDVVFELGVDFAYSAADGTELTGTWTMEGNKLVGKFKRVDNGKELISVREISGNELIQTYTYEGVEAKRIFKKE	TRUE
